experiment: Stability in 80% human plasma assessed as half life by HPLC analysis; format: ADME, cell-free
Below, each entry is listed alongside its reported half-life.

For the compound CCCC(CCC)C(=O)N(C)/N=N/c1ccc(C(=O)OCC)cc1 , what half-life is on record?
> 40 h

I would be grateful if you could share the reported half-life for CCCC(CCC)C(=O)N(C)/N=N/c1ccc(C(=O)OC)cc1 .
> 40 h

Query: half-life; subject: CCCC(=O)N(C)/N=N/c1ccc(C#N)cc1
15.2 h

Entry CC(C)C(=O)N(C)/N=N/c1ccc(C#N)cc1 : reported half-life = ?
13.9 h

# half-life lookup, item CCC(CC)C(=O)N(C)/N=N/c1ccc(C#N)cc1
> 40 h

Could you tell me which half-life is on file for CCCC(CCC)C(=O)N(C)/N=N/c1ccc(C(C)=O)cc1 ?
> 40 h

Numbers sourced from ChEMBL document CHEMBL4393663.
